Values compiled from PubChem BioAssay (NCATS).

- EXPERIMENTAL_TARGET: Atrial natriuretic peptide receptor 1 (Homo sapiens) (UniProt P16066)
- Sequence (P16066 whole entry, looked up): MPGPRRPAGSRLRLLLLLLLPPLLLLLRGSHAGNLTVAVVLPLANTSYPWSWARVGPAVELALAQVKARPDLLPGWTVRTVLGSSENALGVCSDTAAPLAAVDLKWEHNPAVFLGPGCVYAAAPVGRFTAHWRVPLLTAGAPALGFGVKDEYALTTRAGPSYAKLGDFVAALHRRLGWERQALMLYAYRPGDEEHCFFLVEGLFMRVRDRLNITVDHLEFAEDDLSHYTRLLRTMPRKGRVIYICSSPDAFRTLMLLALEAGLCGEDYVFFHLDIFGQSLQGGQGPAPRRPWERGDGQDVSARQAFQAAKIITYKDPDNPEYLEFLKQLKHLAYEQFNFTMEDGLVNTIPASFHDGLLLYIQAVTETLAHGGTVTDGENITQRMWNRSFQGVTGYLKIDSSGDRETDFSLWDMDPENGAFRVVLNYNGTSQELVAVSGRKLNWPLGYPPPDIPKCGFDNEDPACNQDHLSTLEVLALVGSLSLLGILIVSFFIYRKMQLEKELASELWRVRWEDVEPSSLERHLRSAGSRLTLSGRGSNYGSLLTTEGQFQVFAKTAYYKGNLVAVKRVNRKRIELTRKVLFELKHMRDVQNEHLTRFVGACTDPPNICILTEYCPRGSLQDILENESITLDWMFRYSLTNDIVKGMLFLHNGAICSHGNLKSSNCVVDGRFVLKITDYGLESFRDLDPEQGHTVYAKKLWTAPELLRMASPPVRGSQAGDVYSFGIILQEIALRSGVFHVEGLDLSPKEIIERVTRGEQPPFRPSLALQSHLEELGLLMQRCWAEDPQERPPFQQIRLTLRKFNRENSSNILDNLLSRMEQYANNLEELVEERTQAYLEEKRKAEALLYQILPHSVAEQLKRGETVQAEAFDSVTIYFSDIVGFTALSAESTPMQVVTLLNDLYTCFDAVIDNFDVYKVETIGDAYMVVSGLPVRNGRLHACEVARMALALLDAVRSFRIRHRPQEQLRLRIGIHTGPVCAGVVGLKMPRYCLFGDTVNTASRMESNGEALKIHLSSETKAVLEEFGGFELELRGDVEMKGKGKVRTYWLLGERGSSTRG
- METHOD_SUMMARY: Natriuretic polypeptide receptor (hNpr1) antagonism - Pilot screen (AID 1347049);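 further: HEK293 cells with hNpr1 and GloSensor cGMP luciferase stimulated by 0.1 nM hNppA; agonist-evoked cGMP luminescence read 20 min after hNppA addition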
- CONDITION_INFO: hNpr1 cells, antagonist mode cGMP read-out; series mostly up to 57.5 µM
Records with an inconclusive call do not appear. Activity calls are given as the source filed them. The call rests on the fitted dose curve.
Possible outcomes: Y (active), N (inactive)

1. NCc1cc(=O)[nH]o1
N
2. CN[C@@H]1C[C@@H](c2ccc(Cl)c(Cl)c2)c2ccccc21
Y
3. O=C(Cc1ccc(Cl)c(Cl)c1)N1CCCCC1CN1CCCC1 (centres undefined)
N
4. O=C(N[C@H]1CN2CCC1CC2)c1ccc(Cl)cc1
N
5. CCCN(CCC)[C@@H]1CCc2ccc(O)cc2C1
N
6. CN1C2CCC1CC(OC(=O)c1cc(Cl)cc(Cl)c1)C2 (centres undefined)
N
7. CCCCc1ccc(C(=O)O)nc1
N
8. O=C1CCCN1CC#CCN1CCCC1
N
9. NC(N)=NOCCC(N)C(=O)O (centres undefined)
N
10. C[C@@H](N)Cc1cnc[nH]1
N
11. O=C(O)Cc1cnc[nH]1
N
12. CNCCc1c[nH]c2ccc(O)cc12
N
13. COc1cc(C(O)CN)ccc1O (centres undefined)
N
14. CC[C@@]1(O)C(=O)OCc2c1cc1n(c2=O)Cc2cc3ccccc3nc2-1
N

---

- EXPERIMENTAL_TARGET: Flap endonuclease 1 (Homo sapiens)
- METHOD_SUMMARY: qHTS Validation Assay for the Inhibitors of Human Flap endonuclease 1 (FEN1) (AID 488816); further: on the % scale 0 is the no-effect control and ±100 the full control effect
- CONDITION_INFO: FEN1 nuclease activity, fluorogenic DNA substrate; series mostly up to 57.1 µM
Activity calls are given as the source filed them. Calls come from the whole dose curve; as a rule, active = well fitted inhibition curve with a large enough effect; inconclusive = small, poorly fitted or top-dose-only effect; inactive = flat fitted curve, though single readings scatter.
PROPERTY_MEASURED: outcome

1) O=C1CCCN1CC#CCN1CCCC1
inactive
2) O=C(N[C@H]1CN2CCC1CC2)c1ccc(Cl)cc1
inactive
3) NC(N)=NOCCC(N)C(=O)O (centres undefined)
inactive
4) CCCCc1ccc(C(=O)O)nc1
inactive
5) NC1CC1c1ccccc1 (centres undefined)
inactive
6) CC1=NN=C(c2ccc(N)cc2)c2cc3c(cc2C1)OCO3
inactive
7) O=C(O)[C@@H]1CCN1
inactive
8) NCCc1c[nH]c2ccc(O)cc12
inactive
9) Cc1c(C(=O)c2cccc3ccccc23)c2cccc3c2n1[C@H](CN1CCOCC1)CO3
inactive
10) CC[C@@]1(O)C(=O)OCc2c1cc1n(c2=O)Cc2cc3ccccc3nc2-1
inactive
11) C[C@]12CCC3C(CC[C@H]4C[C@H](O)CC[C@]34C)C1CC[C@@H]2C(=O)CO (some centres undefined)
inactive
12) C=CCN1CC[C@]23CCCCC2[C@H]1Cc1ccc(O)cc13 (some centres undefined)
inactive
13) CNCCc1c[nH]c2ccc(O)cc12
inactive
14) Cn1cnc(CCN)c1
inactive

---

Quick list: parasite growth, % of control (lower = inhibition) per entry.
- METHOD_SUMMARY: qHTS profiling of the MIPE4 collection as inhibitors of Plasmodium falciparum (DD2) proliferation (Rep 2) (AID 743346)
- CONDITION_INFO: P. falciparum Dd2 in erythrocytes, SYBR Green DNA, 72 h; at 28.5 µM (top of the series)
- Description: Plasmodium falciparum is a virulent malarial parasite that kills 1-2 million people worldwide each year. […] Because mature erythrocytes lack DNA, only Plasmodium-derived DNA is detected. The SYBR Green viability assay was adapted from a method described previously (Plouffe et al., 2008). […] The following morning, fluorescence intensity at 485(14) nm excitation and 535(25) nm emission wavelengths was measured on an EnVision (Perkin Elmer) plate reader. […]
PROPERTY_MEASURED: parasite growth, % of control (lower = inhibition) (%)

1) COc1ccc2c(c1)CN(C)CC2c1ccc(Cl)c(Cl)c1 (configuration not stated)
15.9
2) CC(=Cc1csc(C)n1)[C@@H]1C[C@H]2O[C@@H]2CCC[C@H](C)[C@@H](O)[C@@H](C)C(=O)C(C)(C)[C@@H](O)CC(=O)O1
36.4
3) CC(=O)OCC1=C(C(=O)O)N2C(=O)[C@@H](N)[C@@H]2SC1
77.5
4) O=c1cccc2n1CC1CNC[C@H]2C1
53.7
5) NC1=NC(=O)N2CC12 (configuration not stated)
46.3
6) O=S(=O)(CC1CS1)c1ccc(Oc2ccccc2)cc1 (configuration not stated)
73.8
7) COC1=C[C@@H]2[C@@H]3Cc4ccc(OC)c(O)c4[C@]2(CCN3C)CC1=O
34.6
8) CC(C)(C)c1cc(C=C(C#N)C#N)cc(Br)c1O
37.3
9) O=C(Nc1ccncc1)C(=O)c1cn(Cc2ccc(Cl)cc2)c2ccccc12
81.4
10) C[C@]12CC[C@@H]3[C@@H](CCC4=CC(=O)CC[C@@H]43)[C@@H]1CC[C@@H]2OC(=O)CCc1ccccc1
56.3
11) C[C@@H]1CC[C@@]2(OC1)O[C@H]1C[C@H]3[C@@H]4CC=C5C[C@@H](O[C@@H]6O[C@H](CO)[C@@H](O[C@@H]7O[C@@H](C)[C@H](O)[C@@H](O)[C@@H]7O)[C@H](O)[C@@H]6O[C@@H]6O[C@@H](C)[C@H](O)[C@@H](O)[C@@H]6O)CC[C@]5(C)[C@@H]4CC[C@]3(C)[C@@H]1[C@H]2C
61.5
12) C=CCON=C(C[C@H]1O[C@@H]2O[C@]3(C)CC[C@@H]4[C@H](C)CC[C@@H]([C@H]1C)[C@@]24OO3)[C@H]1O[C@@H]2O[C@]3(C)CC[C@H]4[C@H](C)CC[C@@H]([C@@H]1C)[C@@]24OO3
16.3
13) C[C@H]1CCCC=CC2C[C@H](O)C[C@@H]2[C@H](O)C=CC(=O)O1 (some centres not stated)
9.15
14) O=C(NCC1CCOCC1)c1cnc(Nc2ccc(Cl)cc2Cl)nc1C(F)(F)F
52.2
15) CC(C)N[C@@H]1CCn2c(=O)[nH]c3cccc(c32)[C@@H]1O
118
16) CC(C)[C@]12O[C@@H]1[C@@H]1O[C@]13[C@]1(O[C@H]1C[C@@H]1C4=C(CC[C@@]13C)C(=O)OC4)[C@H]2O
49.4
17) C#CC1(O)CCC2C3CCC4=CC(=O)CCC4(C)C3CCC21C (configuration not stated)
88
